// provenance: patent US7410966B2

biological target: recombinant human Itk kinase domain fused with GST (Homo sapiens, UniProt Q08881); construct: recombinant human Itk kinase domain fused with GST (Glutathione S-Transferase); GST (Glutathione S-Transferase); made in house; host or cells: High Five insect cells; test: Itk LANCE TRF Assay; type: biochemical; conditions: 2 μM biotinylated peptide substrate, 50 μM ATP, 50 minutes RT, read-out: Inhibition of Kinase Itk (IC50 μM)
Sequence (Q08881 363-615 limits assumed): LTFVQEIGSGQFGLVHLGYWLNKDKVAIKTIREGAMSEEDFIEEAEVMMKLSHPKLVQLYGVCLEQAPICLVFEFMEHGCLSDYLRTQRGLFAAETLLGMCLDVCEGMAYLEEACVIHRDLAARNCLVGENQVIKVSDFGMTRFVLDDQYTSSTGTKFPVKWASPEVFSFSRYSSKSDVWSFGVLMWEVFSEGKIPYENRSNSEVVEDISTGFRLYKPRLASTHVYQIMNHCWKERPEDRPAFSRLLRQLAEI
Counter-ions that a name gives are not always drawn.
OBSERVABLE: IC50 (µM)

>  <MOLECULE>
COc1cc(-c2nc3cc(Br)cnc3[nH]2)ccc1OCc1ccccc1 [Example 29, trifluoroacetate]

>  <DATA_VALUE>
0.31

$$$$
>  <MOLECULE>
OC1CCN(CC(O)COc2ccc(-c3nc4cc(Br)cnc4[nH]3)cc2)C1 (stereo not shown)

>  <DATA_VALUE>
0.43

$$$$

(P) OCCN1CCN(CC(O)COc2ccc(-c3nc4cc(Br)cnc4[nH]3)cc2)CC1 (stereo not shown) [Example 162, bis(trifluoroacetate)]
(Q) Cc1ccc(-c2c(Cl)cnc3[nH]c(-c4ccc(OCCN5CCOCC5)cc4)nc23)cc1
Name the one with the greater IC50 value, either P or Q as given. Provide the label of your selected option as the answer.
P
(P: 0.53 µM, Q: 0.35 µM)

* * *

target: recombinant human Itk kinase domain fused with GST (Homo sapiens); construct: recombinant human Itk kinase domain fused with GST (Glutathione S-Transferase); GST (Glutathione S-Transferase); made in house; host or cells: High Five insect cells; assay: Itk LANCE TRF Assay; assay type: biochemical; conditions: 2 μM biotinylated peptide substrate, 50 μM ATP, 50 minutes RT, read-out: Inhibition of Kinase Itk (IC50 μM)
OBSERVABLE: IC50 (µM)

>  <COMPOUND>
Clc1cnc2[nH]c(-c3ccc(OCCN4CCOCC4)cc3)nc2c1N1CCCC1 [Example 236]

>  <TARGET_ENTITY>
recombinant human Itk kinase domain fused with GST (Homo sapiens)

>  <DATA_VALUE>
0.41

$$$$
>  <COMPOUND>
Brc1cnc2[nH]c(-c3ccc(OCCNc4nccs4)cc3)nc2c1 [Example 104, bis(trifluoroacetate)]

>  <TARGET_ENTITY>
recombinant human Itk kinase domain fused with GST (Homo sapiens)

>  <DATA_VALUE>
0.24

$$$$
>  <COMPOUND>
COc1ccc(S(=O)(=O)Nc2ccc(-c3nc4ncc(Cl)c(Cl)c4[nH]3)cc2)cc1 [Example 267]

>  <TARGET_ENTITY>
recombinant human Itk kinase domain fused with GST (Homo sapiens)

>  <DATA_VALUE>
0.26

$$$$
>  <COMPOUND>
COc1ccc(CNc2ccc(-c3nc4cc(Br)cnc4[nH]3)cc2)cc1 [Example 180, bis(trifluoroacetate)]

>  <TARGET_ENTITY>
recombinant human Itk kinase domain fused with GST (Homo sapiens)

>  <DATA_VALUE>
0.29

$$$$
